target desc: TRβ (TR-receptor hybrid with yeast Gal4 DBD) (Homo sapiens)
Sequence (P10828 217-461 limits assumed): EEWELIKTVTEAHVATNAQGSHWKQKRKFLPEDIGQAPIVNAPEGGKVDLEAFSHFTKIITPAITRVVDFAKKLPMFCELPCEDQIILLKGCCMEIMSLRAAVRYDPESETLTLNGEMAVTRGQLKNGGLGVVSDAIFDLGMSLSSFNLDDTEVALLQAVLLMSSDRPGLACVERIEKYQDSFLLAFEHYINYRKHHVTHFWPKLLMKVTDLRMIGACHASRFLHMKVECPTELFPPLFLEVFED
test details: Thyroid-hormone reporter-gene assay, TRβ
protocol conditions: HEK293-derived reporter cells, firefly luciferase, 24 hr incubation
parameter measured: EC50

Answered examples (8):
- molecule: "O=c1nc(O)cnn1-c1cc(Cl)c(Cc2ccc(O)c(-c3cccc(OC(F)F)c3)c2)c(Cl)c1 [Compound 10]"
  meas value: "< 0.01 µM"
- molecule: "CC(C)c1cc(Cc2c(Cl)cc(-n3nc(C#N)c(O)nc3=O)cc2Cl)ccc1O [Compound 1]"
  meas value: "0.01 to 0.1 µM"
- molecule: "N#Cc1nn(-c2cc(Cl)c(Cc3ccc(O)c(Cc4ccc(F)cc4)c3)c(Cl)c2)c(=O)nc1O [Compound 4]"
  meas value: "0.1 to 1 µM"
- molecule: "CC(C)c1c(O)ccc(Cc2c(Cl)cc(-c3cc(F)c(O)c(F)c3)cc2Cl)c1F [Compound 7]"
  meas value: "0.1 to 1 µM"
- molecule: "CC(C)c1c(O)ccc(Cc2c(Cl)cc(-c3ccc(F)c(O)c3F)cc2Cl)c1F [Compound 8]"
  meas value: "> 1 µM"
- molecule: "CC(C)c1cc(Cc2c(Cl)cc(-c3cc(O)no3)cc2Cl)ccc1O [Compound 9]"
  meas value: "0.01 to 0.1 µM"
- molecule: "CC(C)c1cc(Cc2c(Cl)cc(-n3nc(C#N)c(O)nc3=O)cc2C(C)C)ccc1O [Compound 5]"
  meas value: "< 0.01 µM"
- molecule: "N#Cc1nn(-c2cc(Cl)c(Cc3ccc(O)c(-c4cccc(OC(F)F)c4)c3)c(Cl)c2)c(=O)nc1O [Compound 3]"
  meas value: "0.1 to 1 µM"

Prompt: Which EC50 is listed for CC(C)c1c(O)ccc(Cc2c(Cl)cc(-n3nc(C#N)c(O)nc3=O)cc2Cl)c1F [Compound 2] ?
Completion: 0.01 to 0.1 µM

Prompt: Given the molecule CC(C)c1cc(Cc2c(Cl)cc(-n3nc(C#N)c(O)nc3=O)c(F)c2Cl)ccc1O [Compound 6] , what is its reported EC50?
Completion: 0.1 to 1 µM
